# system.tested: UniProtKB Q8ILY1
# Sequence (Q8ILY1 entry or part of it): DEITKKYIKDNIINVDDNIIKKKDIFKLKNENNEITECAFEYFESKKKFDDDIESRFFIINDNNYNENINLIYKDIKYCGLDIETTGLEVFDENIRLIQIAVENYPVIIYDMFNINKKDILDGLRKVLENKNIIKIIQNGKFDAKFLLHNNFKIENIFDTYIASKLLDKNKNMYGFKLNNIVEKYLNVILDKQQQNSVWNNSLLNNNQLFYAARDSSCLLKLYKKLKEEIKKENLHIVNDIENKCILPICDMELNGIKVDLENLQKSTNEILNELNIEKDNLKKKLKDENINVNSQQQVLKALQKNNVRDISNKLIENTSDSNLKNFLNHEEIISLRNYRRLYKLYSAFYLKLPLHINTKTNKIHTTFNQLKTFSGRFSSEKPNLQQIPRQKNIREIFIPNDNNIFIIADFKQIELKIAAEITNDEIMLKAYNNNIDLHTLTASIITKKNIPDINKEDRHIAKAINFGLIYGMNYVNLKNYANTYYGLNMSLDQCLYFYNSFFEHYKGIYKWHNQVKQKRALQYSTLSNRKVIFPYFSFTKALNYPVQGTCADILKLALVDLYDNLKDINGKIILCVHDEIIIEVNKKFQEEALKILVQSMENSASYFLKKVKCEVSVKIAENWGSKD
# test.description: Fluorescence-based high-throughput DNA polymerase assay (molecular beacon), primary screen and dose-response
# Format: biochemical
# test.conditions: DRC-1; read at 180'; concentration 80
We use 60% as the dividing line for % inhibition apPOL 180' 80: on or above the line is satisfied, below is not satisfied.

Observe how each entry below is paired with its result.
compound: CCCc1ccc(Oc2coc3cc(OC)ccc3c2=O)cc1
qualitative.label: not satisfied

compound: O=C(c1ccccc1)N1CCc2c(nc3cc(-c4ccccc4)[nH]n3c2=O)C1
qualitative.label: not satisfied

compound: Cc1cc2[nH]c(C(=O)Nc3ccc(F)cc3)c(CN3CCOCC3)c2s1
qualitative.label: satisfied

Task item: % inhibition apPOL 180' 80 >= 60% for C#CC(C=CC)OC(=O)c1ccccc1C(=O)O (stereo not drawn) ?
Reply: not satisfied

Task item: Is % inhibition apPOL 180' 80 at least 60%? Consider Cc1ccc(N2CCC(NC(=O)Cc3cccs3)C2=O)cc1C (stereo not drawn)
Reply: satisfied

Task item: Reported % inhibition apPOL 180' 80 reaches at least 60% for CC(=O)OCC1=C(C(=O)[O-])N2C(=O)[C@@H](NC(=O)Cc3cccs3)[C@H]2SC1.[Na+] ?
Reply: not satisfied

Task item: Decide: is the reported value of % inhibition apPOL 180' 80 for Cc1nc(C)c2c(n1)N(CC1CCCCC1)C(=O)CC2 equal to or greater than 60%?
Reply: not satisfied

Task item: Can Cc1ccsc1Cn1c(C)ccc1C be said to have % inhibition apPOL 180' 80 at or above 60%?
Reply: not satisfied

Task item: Please check the record Cn1nc(-c2nc(-c3ccccc3)no2)c2c1CCN(C(=O)Cc1cccs1)C2 and state if its % inhibition apPOL 180' 80 is at or above 60%.
Reply: satisfied

Task item: Can O=C(CCc1csc(NC(=O)Nc2ccccc2)n1)Nc1nc2ccccc2s1 be said to have % inhibition apPOL 180' 80 at or above 60%?
Reply: not satisfied

Task item: Threshold query (% inhibition apPOL 180' 80 >= 60%) on CC(C)CC(C(=O)O)N1C(=O)C2C3C=CC(C2C1=O)C1C(=O)N(C(CC(C)C)C(=O)O)C(=O)C31 (stereo not drawn)
Reply: not satisfied

Task item: Check if % inhibition apPOL 180' 80 >= 60% (inclusive). Item: COc1ccc(C2CC(c3ccc(Cl)cc3Cl)Nc3nc(N)nn32)cc1OC (stereo not drawn)
Reply: satisfied

// data source = paper PMC9090415
